Target Desc: the molecule itself
Assay Method Text: cross-linking; constructs incubated with BS(PEG)5 (bis-succinimide ester-activated PEG, 21.7 Å), then reducing 16% tricine SDS-PAGE of crosslinked and control samples
Measured Property: stoichiometry N
Simply state the number, no unit and no words.

BCL11B_(42–94) C81H (domain or fragment, human, UniProt Q9C0K0 42-94, looked up, BCL11B, human, residues 42-94 (ZF0) with C81H, which turns the CCHC zinc finger into a C2H2 zinc finger; also called zinc finger mutant C81H; source: E. coli, recombinantly expressed, purified) SGLGLMVGGPDPDLLTCGQCQMNFPLGDILVFIEHKRKQHGGSLGACYDKALD :: 4

Using the record for BCL11B_(42–94) WT (N-terminal wild-type zinc finger domain, ZF0) (domain or fragment, human, UniProt Q9C0K0 42-94, looked up, B Cell Lymphoma/Leukemia 11B (BCL11B), human, residues 42-94, atypical CCHC zinc finger domain ZF0; source: E. coli, recombinantly expressed, purified) SGLGLMVGGPDPDLLTCGQCQMNFPLGDILVFIEHKRKQCGGSLGACYDKALD , report its stoichiometry N.
4

Using the record for BCL11B_(42–94) I74A (domain or fragment, human, UniProt Q9C0K0 42-94, looked up, BCL11B, human, residues 42-94 (ZF0) with I74A; CD spectra indicate an incomplete zinc finger fold; source: E. coli, recombinantly expressed, purified) SGLGLMVGGPDPDLLTCGQCQMNFPLGDILVFAEHKRKQCGGSLGACYDKALD , report its stoichiometry N.
2

Using the record for BCL11B_(42–94) L71A/V72A (domain or fragment, human, UniProt Q9C0K0 42-94, looked up, BCL11B, human, residues 42-94 (ZF0) with L71A and V72A; also called double mutant L71A/V72A; source: E. coli, recombinantly expressed, purified) SGLGLMVGGPDPDLLTCGQCQMNFPLGDIAAFIEHKRKQCGGSLGACYDKALD , report its stoichiometry N.
4

Using the record for BCL11B_(42–94) K77A (domain or fragment, human, UniProt Q9C0K0 42-94, looked up, BCL11B, human, residues 42-94 (ZF0) with K77A; also called lysine mutant K77A; source: E. coli, recombinantly expressed, purified) SGLGLMVGGPDPDLLTCGQCQMNFPLGDILVFIEHARKQCGGSLGACYDKALD , report its stoichiometry N.
2

Using the record for BCL11B_(42–94) I70A (domain or fragment, human, UniProt Q9C0K0 42-94, looked up, BCL11B, human, residues 42-94 (ZF0) with I70A; CD spectra indicate an incomplete zinc finger fold; source: E. coli, recombinantly expressed, purified) SGLGLMVGGPDPDLLTCGQCQMNFPLGDALVFIEHKRKQCGGSLGACYDKALD , report its stoichiometry N.
2

FYI, the data here is from paper PMC12127727.
